- System: OVCAR-3 ovarian
- method: NCI tumour cell line growth inhibition, 48 h
The reader will find reported GI50 values listed item by item below.

{"columns": ["smilesRepr", "GI50"],
 "data": [
  ["O=C(O)c1c(=O)cccc2ssc12", "1.81 µM"],
  ["CN(C)CCNc1c2ccccc2nc2oc3ccccc3c12", "8.71 µM"],
  ["Fc1cccc(-n2ccc(-c3ccccc3)nc2=S)c1", "19 µM"],
  ["COc1cc(-c2csc(NC(=O)Nc3ccc(C(F)(F)F)cc3)n2)cc(OC)c1OC", "2 µM"],
  ["Cc1cc2c(C(N)=O)c(N)n(-c3c(C)ccc(O)c3C)c2nc1C", "3.07 µM"],
  ["CC1(N)CCN(c2cnc(-c3cccc(Cl)c3Cl)c(N)n2)CC1", "35.1 µM"],
  ["Oc1ccc(C2c3ccccc3Oc3ccccc32)c2cccnc12", "2.45 µM"],
  ["CN(CC(=O)Nc1nc2ccccc2[nH]1)S(=O)(=O)c1ccc(Cl)cc1", "> 100 µM"],
  ["NS(=O)(=O)CC1CC[CH-]CC1.[Cl-].[Cl-].[Cl-].[Cl-].[Cl-].[Sb+5].c1ccncc1", "> 100 µM"],
  ["CCOC(=O)c1cc(-c2ccccc2)[nH]c1N/N=C/c1ccc(Cl)cc1", "> 100 µM"]
]}
